Species on record: Rattus norvegicus
Test: Open TG-GATES - Regimen: Daily Repeat
Format: toxicity, organism-based, Sprague-Dawley
Set-up: regimen Daily Repeat, gender Male, age 6 weeks
Conditions: in vivo, po, 300 mg/kg, […], tissue Plasma, route gavage, dose level Middle, time 14 day
TC reference
Value Type: TC (mg/dL)

Molecule	Endpoint Result
CCOc1ccc(NC(=O)CC(C)O)cc1 (stereo not given)	79.8
COc1ccc2[nH]c([S+]([O-])Cc3ncc(C)c(OC)c3C)nc2c1 (stereo not given)	84.4
CCOC(=O)CCC(=O)O[C@H]1[C@H](O[C@@H]2[C@@H](C)[C@H](O[C@H]3C[C@@](C)(OC)[C@@H](O)[C@H](C)O3)[C@@H](C)C(=O)O[C@H](CC)[C@@](C)(O)[C@H](O)[C@@H](C)C(=O)[C@H](C)C[C@@]2(C)O)O[C@H](C)C[C@@H]1N(C)C [ERYTHROMYCIN ETHYLSUCCINATE]	79.8
COC1=CC(=O)C[C@@H](C)[C@]12Oc1c(Cl)c(OC)cc(OC)c1C2=O	82.2
NC(N)=Nc1nc(CSCCC(N)=NS(N)(=O)=O)cs1	76
